Test system: Escherichia coli
method-summary: Antimicrobial activity against Escherichia coli after 24 hrs […]
Type: functional
MIC overview
Use µg/mL as the unit, but write only the number.

Field: example entries. Status: answers known.
- Brc1ccc(-c2cnc(-c3ccc4nc(-c5ccc(Oc6ccccc6)cc5)c(Nc5ccccc5)n4c3)[nH]2)cc1: 12.2
- Cc1ccc(-c2cnc(-c3cnc4nc(-c5ccc(Br)cc5)c(Nc5ccccc5)n4c3)[nH]2)cc1: 8.11
- Brc1ccc(-c2nc3ccc(-c4ncc(-c5ccc(Oc6ccccc6)cc5)[nH]4)cn3c2Nc2ccccc2)cc1: 33.3

Item Cc1ccc(-c2nc3ncc(-c4nnc(-c5ccc(F)cc5)o4)cn3c2Nc2ccccc2)cc1 has what recorded MIC?
2.78

* * *

Tested on: Pseudomonas aeruginosa
method-summary: Antimicrobial activity against Pseudomonas aeruginosa after 24 hrs […]
Format: functional
Bucketed by reported MIC, buckets being Low: < 3 µg/mL; Medium: ≥ 3 µg/mL and < 10 µg/mL; High: ≥ 10 µg/mL

Reference set (6 entries):
* Fc1ccc2nc(-c3ccc4nc(-c5ccc(Br)cc5)c(Nc5ccccc5)n4c3)[nH]c2c1 | Medium
* O=[N+]([O-])c1ccc(-c2nnc(-c3cnc4nc(-c5ccc(Br)cc5)c(Nc5ccccc5)n4c3)o2)cc1 | Medium
* Fc1ccc(-c2nnc(-c3ccc4nc(-c5ccc(Br)cc5)c(Nc5ccccc5)n4c3)o2)cc1 | Low
* Fc1ccc(-c2nnc(-c3ccc4nc(-c5ccc(Oc6ccccc6)cc5)c(Nc5ccccc5)n4c3)o2)cc1 | Medium
* Cc1ccc(-c2nnc(-c3cnc4nc(-c5ccc(Br)cc5)c(Nc5ccccc5)n4c3)o2)cc1 | Medium
* Brc1ccc(-c2nc3ccc(-c4ncc(-c5ccc(Oc6ccccc6)cc5)[nH]4)cn3c2Nc2ccccc2)cc1 | High

Entry Cc1ccc(-c2nc3ccc(-c4nc5ccc(Oc6ccccc6)cc5[nH]4)cn3c2Nc2ccccc2)cc1 belongs to which category?
High

Entry Fc1ccc(-c2cnc(-c3ccc4nc(-c5ccc(Br)cc5)c(Nc5ccccc5)n4c3)[nH]2)cc1 belongs to which category?
Low

Entry Fc1ccc2nc(-c3cnc4nc(-c5ccc(Br)cc5)c(Nc5ccccc5)n4c3)[nH]c2c1 belongs to which category?
Low

Entry O=[N+]([O-])c1ccc2nc(-c3cnc4nc(-c5ccc(Br)cc5)c(Nc5ccccc5)n4c3)[nH]c2c1 belongs to which category?
High

Entry Brc1ccc(-c2cnc(-c3ccc4nc(-c5ccc(Oc6ccccc6)cc5)c(Nc5ccccc5)n4c3)[nH]2)cc1 belongs to which category?
High

Entry Fc1ccc(-c2cnc(-c3cnc4nc(-c5ccc(Br)cc5)c(Nc5ccccc5)n4c3)[nH]2)cc1 belongs to which category?
Low

Entry Cc1ccc(-c2nc3ncc(-c4nnc(-c5ccc(F)cc5)o4)cn3c2Nc2ccccc2)cc1 belongs to which category?
Medium

Entry Clc1ccc(-c2cnc(-c3ccc4nc(-c5ccc(Br)cc5)c(Nc5ccccc5)n4c3)[nH]2)cc1 belongs to which category?
Low

Entry C=CC1=C(C(=O)O)N2C(=O)[C@@H](NC(=O)/C(=N\OCC(=O)O)c3csc(N)n3)[C@H]2SC1 [CEFIXIME] belongs to which category?
High

Entry Cc1ccc(-c2nc3ncc(-c4nc5ccc(F)cc5[nH]4)cn3c2Nc2ccccc2)cc1 belongs to which category?
Medium

Entry Clc1ccc(-c2cnc(-c3cnc4nc(-c5ccc(Br)cc5)c(Nc5ccccc5)n4c3)[nH]2)cc1 belongs to which category?
Low

Entry Fc1ccc2nc(-c3ccc4nc(-c5ccc(Oc6ccccc6)cc5)c(Nc5ccccc5)n4c3)[nH]c2c1 belongs to which category?
High
